Hi there, I'd appreciate the recorded PBM binding z-score for every entry that follows.
tested on: LXRb:RXRa (NR concentration 270 nM, RXRa partner concentration 90 nM); assay: PBM binding z-score (relative to random genomic background probes); higher = stronger binding; sequences stand for … in GC…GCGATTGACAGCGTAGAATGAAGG

Ask: Which PBM binding z-score reading was recorded for the sequence `GATACAGGGTCAGATAGAGGCCAGAGTATGGAAA` ?
Reply: 3.03

Ask: And for `AGAATCAGGTTAAGATCAGGGAAACAGAATACAT` ?
Reply: 0.799

Ask: Same thing, different sequence: `GCAGACAGGTGAAACGCAGGTAGCTCAGGGTGGC`
Reply: -0.61

Ask: Also `AGTCAAAGTTCATCTAGGTAGCGTAAGATATGCT` ?
Reply: 3.76

Ask: Next record, please: `CGTCCAAGGTCAATGCTTGGTCAGTGAAAGCATT`
Reply: 3.42

Ask: And what about the sequence `GCTCGGAGGACAAGGTCGGAGCTTTGTCCGTAGA` ?
Reply: -0.475

Ask: Let us now turn to `AATACAGGCTCATCGTAGGCCAGAGTACGCACAG`
Reply: -0.712

Ask: Lookup `ATATGTAGGTTTTCGGGTCATTCAGTTTGCGCAT`
Reply: 3.14

Ask: `GCAGACAGGTGAATCGCAGGTAACTCAGGGTGGC` ?
Reply: -0.203

Ask: And `CCGACTGGGGCAGAAAGGTTACCAAACCATCCGG` ?
Reply: 1.02

Ask: What would you report for `TGGAGTAGGTTACCAATGGGGCATTCAGCTTTCT` ?
Reply: 1.12

Ask: Request: `CCTACTGGGCCTTCAGGTCATTGATATCAACGTT`
Reply: 1.3

###

I'd be grateful if you could share measured PBM binding z-score for these entries.
system: RXRa homodimer (NR concentration 180 nM); assay: PBM binding z-score (relative to random genomic background probes); higher = stronger binding; sequences stand for … in GC…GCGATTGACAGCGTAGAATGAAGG
Provide a numeric answer; units are not to be included.

Ask: Please give the measured PBM binding z-score for this sequence: `CCTAGCAGGCCAGGGTCGCTCAAGCATTTCGCTT`
Reply: 0.948

Ask: Try `GCGACTGGGGCATCATCAGGTTACCATAACTTAA` next.
Reply: 0.302

Ask: Can you check `GCTGCTAGGTCAACTGGTGGTCAGCTAAAGCTCG` next?
Reply: 2.88

Ask: Same for `TCTAGGTGGTCAAAGGTCACACACTCGAAATGCG`
Reply: 8.65

Ask: Also `CCTTACGGGTCAAGGTTATAGAACGGGTGGTACG` ?
Reply: 5.58

Ask: Input `CCTAGTTGGTCAGGAGGTGACACACCGGATATGA`
Reply: 0.768

Ask: And then `GCTTATAGATCAAGGTTAAGAAAGACTAAGCTAA` , what is it?
Reply: 0.835

Ask: Consider next the sequence `ATCTCTAGGTAAGACTCAGTTCGGTGAAGAACGC` in the same way.
Reply: -0.00788

Ask: Entry to check: `CCTACTGGGCCAAAGATCATTGATTCCAATGCTC`
Reply: 0.0908

Ask: Another sequence: `CCTTCTGGGCCAAGGTCATTGATCAGTCAAAGCA`
Reply: 3.24

Ask: Same thing, different sequence: `ATATGAAGGTTAAGGGTCATTCAGGTTGGTTCGC`
Reply: 7.12

Ask: Continue with `AGAACGAGGGCACGCTCAGTTGATAGCAGAGTAG`
Reply: 1.28

###

test system: RXRa homodimer (NR concentration 180 nM); assay: PBM binding z-score (relative to random genomic background probes); higher = stronger binding; sequences stand for … in GC…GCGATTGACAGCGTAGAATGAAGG
Mark true (1) for reported PBM binding z-score of 1 or greater; mark false (0) for anything smaller.

Ask: Hello, I need to know if `ACTATTAGTTGACTTAGGGCAACCGATACGACGC` has measured PBM binding z-score not below 1. Thanks!
Reply: false (0)

Ask: Proceed to `TCTTGTAGATCAGCAGGTTAACAAAGCTGGCCAA`
Reply: false (0)

Ask: And what about the sequence `CCAGACAGGTGAGAACGTAACTCAGCCTCGATTA` ?
Reply: false (0)

Ask: Please answer likewise for `ACAGACAGGTGTTGAAGGTAACTCAGGCTATCAT`
Reply: false (0)

Ask: Query `CCTACTGGGCCAAAAAGGTTATTGATGCCGATAA` next
Reply: true (1)

Ask: Try the sequence `ATCGAAAGGTCGAGGTGAGTAAAGAGAAAGGGAA`
Reply: true (1)

Ask: And `ATATGTAGGTTAGCTGCGGTCATTCAGACTAGGC` ?
Reply: false (0)

Ask: Query `TCATATAGGTAAATGCTAGGTGAAAATCCGATCT` next
Reply: false (0)

Ask: Same thing, different sequence: `CCTACTGGGCCAAAAAGGTCGTTGATGCCGATAA`
Reply: true (1)

Ask: And what about the sequence `TCATATAGGTAAACAGGTGATAGTCCGTAAGTTA` ?
Reply: false (0)

Ask: Same read-out for `AGTAAAAGTTCATCTAGGTAACGTAAGATATGCT` ?
Reply: true (1)

Ask: Lookup `TCTAGTTGGTCAAAGGTCACACACTCGAAATGCG`
Reply: true (1)

Ask: Also, `CGTACTGGGCCATCAGGTCATTGATATCAACGTT` please.
Reply: true (1)

Ask: Now the same for `CGTCCAAGGTCAGAGAGGTCGGTGAATGCCGAGT`
Reply: true (1)

Ask: Moving on to `CGTCCAAGGTCATAGGAGGTTAGTGAAGACAGAT`
Reply: true (1)

Ask: Try `AGAATGCGGTTAAGATCAGGGAAACAGAATACAT` next.
Reply: false (0)

Ask: Also, `TTACCAAGGTGAGATGAGGTCGTTGATCCAACTC` please.
Reply: true (1)

Ask: Quick one: `CCGACTGGGGCAGAAAGATTACCATACCATCCGG`
Reply: false (0)

Ask: Let us now turn to `ATCGAAAAGTCGTGAGGTGAGTATACAGAAAGGC`
Reply: false (0)

Ask: Now the same for `CGAACTAGGTCATCCCGGACAGTGAATACATTGA`
Reply: true (1)

Ask: Subsequent entry: `TCTTGTAGATCAATACAGGTTAAGAAAGTGCGCT`
Reply: false (0)

Ask: Try the sequence `ATCTCTAGGTAAGACTTAGTTCAGTGAAGAACGC`
Reply: false (0)

Ask: And then `GCGACTGGGGCAAAGAAGGTTACCATAAGGTTGG` , what is it?
Reply: false (0)

Ask: What do you get for `TCTAGCAGGCCAGAGGGTCACTCCAGAGGTACGG` ?
Reply: true (1)

Ask: Further, for `GTACCAAGGTGAATAGGTCATTGATGAGTAGGCG` ?
Reply: true (1)

Ask: How about `CCTATTAGTTGACCATAAGAGCAACCGAAGCTCG` ?
Reply: false (0)

###

So I've got a bunch of sequences here, and I need their PBM binding z-score values.
system: PPARa:RXRa (NR concentration 270 nM, RXRa partner concentration 90 nM); test: PBM binding z-score (relative to random genomic background probes); higher = stronger binding; sequences stand for … in GC…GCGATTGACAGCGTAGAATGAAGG
Give a plain numeric answer without units written out.

Ask: Endpoint output: PBM binding z-score of `ACTATTAGTTGACTTAGGGCACCCGATACGACGC` . Value?
Reply: -0.213

Ask: Cool, now `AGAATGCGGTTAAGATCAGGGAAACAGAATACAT`
Reply: -0.181

Ask: Also need `CCTGCTGGGCCACGAAAGGTCATTGATTCAGTGA` , thanks.
Reply: 4.2

Ask: Try the sequence `CTCGAAAGGTCGTGATCAGGTGAGTATACCAAAC`
Reply: 4.89

Ask: Another sequence to look at: `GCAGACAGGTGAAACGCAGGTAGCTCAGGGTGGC`
Reply: 0.412

Ask: Similarly, `CGAACGAGGGCATGAGTTGATGGCAAATGCCGAT` ?
Reply: 1.4

Ask: For `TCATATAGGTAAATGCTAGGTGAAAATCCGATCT` then?
Reply: 1.17

Ask: Then `ATCGATAGGTCGAGGTGAGTATAGAGAAAGGGAA` ?
Reply: 2.02

Ask: Then this sequence: `TTTTGTAGATCAAGCAGGTTAAGAAAGCCTGAGT`
Reply: 0.567

Ask: Subsequent entry: `ATATGTAGGTTATCGGGTCAGTCAGTTTGCGCAT`
Reply: 4.28

Ask: Repeat for the following sequence: `ATCTCTTGGTAAGACTCAGTTCAGTGAAGAACGC`
Reply: 0.0896

Ask: Now the same for `CCTACTGTGCCAAAAAGGTCATTGATGCCGATAA`
Reply: 4.73
